Test system: A549-ACE2 infected with SARS-CoV-2
assay: cell count relative to DMSO; higher = less toxic
assay.context: 0.3 µM; 24 h
For each record, write down the corresponding cell count.
Express it in %; write the number only.

Using the record for Cc1ccc(NC(=O)Nc2cc(C(F)(F)F)ccc2F)cc1Nc1ccc2c(c1)NC(=O)/C2=C\c1ccc[nH]1 , report its cell count.
100

Given the compound C=C1C(=O)O[C@@H]2[C@H]3C(C)=CC[C@@]34O[C@@]4(C)CC[C@@H]12 , what is its reported cell count?
96

Which cell count value belongs to CN1CCN(C2CCN(C(=O)Nc3cc(Oc4ccc(NC(=O)C5(C(=O)Nc6ccc(F)cc6)CC5)c(F)c4)ccn3)CC2)CC1 ?
101

Report cell count for COc1ccc2c(C)nc(Nc3nc(C)c(C)c(O)n3)nc2c1 please.
102

Fill in: cell count of C[C@H]1CCC/C=C/[C@@H]2C[C@H](O)C[C@H]2[C@H](O)/C=C/C(=O)O1 is ___
52

Bench note: what cell count did O=C(Nc1ccc(-c2ccnc(Nc3ccc(N4CCOCC4)cc3)n2)cc1)C1CCCN1 (stereo unspecified) show?
98

Data credit: the supplement of paper PMC13380429
